What half-life at 9 μM was measured for each of the following?
Experiment: in vitro
Settings: human, plasma
Ends that are not written are not given here.

Below, each entry is followed by its recorded half-life at 9 μM result.
substance: KFQFEF-NH2 [peptide 18, H-Lys-Phe-Gln-Phe*-Glu-Phe-NH2]
half-life at 9 μM: ~5 min
--
substance: FQFQFK-NH2 [peptide 16, H-Phe-Gln-Phe*-Gln-Phe-Lys-NH2]
half-life at 9 μM: ~3 min
--
substance: WEWQWK-NH2 [peptide 12, H-Trp-Glu-Trp*-Gln-Trp-Lys-NH2]
half-life at 9 μM: ~21 min

Kindly review the next substance as well.
Which half-life at 9 μM value is on record for FEFQFK-NH2 [peptide 2, H-Phe-Glu-Phe*-Gln-Phe-Lys-NH2] ?
~15 min
